Listing of entries alongside the reported ratio to parent.
B1: yeast-displayed wild-type human LIFR CBM I–Ig-like domains (Gln45 to Gln337) [human] / recombinant human LIF, histidine-tagged (hLIF-His) [human] (parent complex)
chain 1: QKKGAPHDLKCVTNNLQVWNCSWKAPSGTGRGTDYEVCIENRSRSCYQLEKTSIKIPALSHGDYEITINSLHDFGSSTSKFTLNEQNVSLIPDTPEILNLSADFSTSTLYLKWNDRGSVFPHRSNVIWEIKVLRKESMELVKLVTHNTTLNGKDTLHHWSWASDMPLECAIHFVEIRCYIDNLHFSGLEEWSDWSPVKNISWIPDSQTKVFPQDKVILVGSDITFCCVSQEKVLSALIGHTNCPLIHLDGENVAIKIRNISVSASSGTNVVFTTEDNIFGTVIFAGYPPDTPQ
chain 2: not shown

Variants of: B1
Experiment description: flow cytometry of yeast-displayed LIFR variants; parent: 1; read off a plot
Experimental endpoint: ratio to parent

1. chain 1 I217V, chain 1 L218P, chain 1 N242D, chain 1 I257V, chain 1 I260V, chain 1 V262A, chain 1 T273I, chain 1 N277D :: ~12
2. chain 1 L218P, chain 1 H240R, chain 1 I257V, chain 1 V262A, chain 1 T273I, chain 1 N277D :: ~12
3. chain 1 L218P, chain 1 N242D, chain 1 I257V, chain 1 N277D :: ~6
4. chain 1 I217V, chain 1 L218P, chain 1 N242D, chain 1 V262A, chain 1 T273I, chain 1 N277D :: ~6
5. chain 1 L218P, chain 1 H240R, chain 1 N242D, chain 1 I257V, chain 1 I260V, chain 1 V262A, chain 1 T273I, chain 1 N277D :: ~13
6. chain 1 I217V, chain 1 L218P, chain 1 H240R, chain 1 N242D, chain 1 I257V, chain 1 I260V, chain 1 V262A, chain 1 T273I, chain 1 N277D :: ~13
7. chain 1 L218P, chain 1 H240R, chain 1 I257V, chain 1 I260V, chain 1 V262A, chain 1 T273I, chain 1 N277D :: ~15
